Values compiled from PubChem BioAssay (NCI).

# System: SK-MEL-2 melanoma
# experiment: NCI-60 one-dose screen, 48 h
# stated.conditions: 10 µM unless noted
Compounds without any hit were thinned out: in the full panel of roughly 83,000, 20% have a hit. The source made the active and inactive calls. The calls were made as follows: active = growth percent below 10; inactive = the rest.
Lab note: assign the record to one of true (active), false (inactive)

Completed entries (count: 2):
Q) # lookup: test call for COc1ccc(C2=NNC(c3cc(Cc4ccc(O)c(C5CC(c6ccc(OC)cc6)=NN5)c4)ccc3O)C2)cc1 (stereo not given)
A) false

Q) # lookup: test call for Cn1cc(-c2csc(-c3c[nH]c4ncccc34)n2)c2cc(Br)cnc21
A) false

---
Q) # lookup: test call for Cc1c(C(N)=O)sc2c1c(=O)n(Cc1ccccc1)c1nnc(SCC(=O)Nc3ccc(Cl)cc3)n21
A) true

Q) # lookup: test call for Cn1c(=O)c2c(nc(Br)n2CCC(=O)Nc2ccc(F)cc2)n(C)c1=O
A) false

Q) # lookup: test call for Cc1ccc(C(=O)Nc2ccc(Cl)cc2C(=O)NCc2ccccc2)cc1
A) false

====

Collected growth values appear next to each entry.
# System: COLO 205 colon
# experiment: NCI-60 one-dose screen, 48 h (100 = growth as untreated, 0 = no growth, -100 = all killed)
# stated.conditions: 10 µM unless noted
This is part of a sample that, as a whole, favours compounds with a hit. Of some 83,000 tested, about 20% had one in any assay.
Field format: number, assumed %, no unit text.

In the examples that follow, each entry is paired with its recorded growth.
Q) Can you share its growth? I mean this compound: COc1cc(/C=C/C(=O)N2CCN(C(=O)/C=C/c3ccccc3)CC2)cc(OC)c1OC
A) 113

Q) Can you share its growth? I mean this compound: ClC1=C(Cl)C(Cl)=C(Cl)C1=Cc1ccc(Cl)cc1
A) 13.5

Q) Can you share its growth? I mean this compound: CCCCCCCCCCCCNc1ncnc2[nH]ncc12
A) 95.4

Q) Can you share its growth? I mean this compound: COc1c(O)cc2oc3cc(O)c(CC=C(C)C)c(O)c3c(=O)c2c1C/C=C(\C)CCC=C(C)C
A) 81.7

---
Q) Can you share its growth? I mean this compound: COc1ccc(-c2nnc(COc3ccc(NC(=O)Nc4cc(C(F)(F)F)cc(C(F)(F)F)c4)cc3F)o2)cc1
A) -40.7

Q) Can you share its growth? I mean this compound: COc1ccc(-c2oc3cc(O)c(OC)c(O)c3c(=O)c2OC)cc1O
A) 101

Q) Can you share its growth? I mean this compound: Cc1nn(-c2ccc(Cl)cc2)c2nc3c(nc12)c(=O)oc1ccccc13
A) 123

Q) Can you share its growth? I mean this compound: COC(=O)[C@]1(C(C)C)N[C@H](c2cn(-c3ccccc3)nc2-c2ccccc2)[C@@H]2C(=O)N(c3ccc(Cl)cc3)C(=O)[C@@H]21
A) 106

Q) Can you share its growth? I mean this compound: Nc1nonc1-c1nc2ccccc2n1CC(=O)Nc1ccc2c(c1)COC2=O
A) 98.4

Q) Can you share its growth? I mean this compound: O=C1CCCN1C1CCN(Cc2cc3ccccc3[nH]c2=O)c2ccccc21 (centres undefined)
A) 106

Q) Can you share its growth? I mean this compound: Cc1nn(-c2ccccc2)c2ncc3c(c12)C(=O)N(Cc1ccccc1)C3=O
A) 32.9

Q) Can you share its growth? I mean this compound: CC1=C(C(=O)Nc2ccccc2)C(c2ccc3c(c2)OCCO3)NC(=O)N1 (centres undefined)
A) 105

Q) Can you share its growth? I mean this compound: COc1ccc(-c2csc(NC(=O)c3cc(OC)c(OC)c(OC)c3)n2)cc1
A) 105

Q) Can you share its growth? I mean this compound: NCCCc1nnc(CCC(=O)c2nc3ccccc3[nH]2)o1
A) 111

Q) Can you share its growth? I mean this compound: COc1ccc(COC(C)=O)cc1
A) 127

Q) Can you share its growth? I mean this compound: Cc1cc(NC(=O)Nc2cc(Cl)ccc2C)no1
A) 143

Q) Can you share its growth? I mean this compound: CC(=O)c1cc(C(=O)c2ccc3c(c2)Sc2ccccc2N3)c2c(C)cc(C)cn12
A) -37.4

Q) Can you share its growth? I mean this compound: CCCCCCC/C(=N\N=C(N)N)c1ccc(O)cc1
A) -88.8

Q) Can you share its growth? I mean this compound: CCN(CC)c1ccc(CN(CC(=O)c2ccc(Cl)c(Cl)c2)Cc2ccccc2)cc1
A) 104

Q) Can you share its growth? I mean this compound: COc1ccc(/C=C(\C#N)c2ccccc2)cc1
A) 103

Q) Can you share its growth? I mean this compound: c1ccc(-c2nnc(Nc3nnc(-c4ccccc4)s3)s2)cc1
A) 116

Q) Can you share its growth? I mean this compound: COc1ccc(/C=C/C(=O)Nc2cccnc2Nc2ccc(F)cc2)cc1
A) 109

====

# System: HCT-116 colon
# experiment: NCI-60 one-dose screen, 48 h
# stated.conditions: 10 µM unless noted
The panel holds about 83,000 compounds, 20% with a hit somewhere; the sample as a whole holds those more often. Activity calls are given as the source filed them. The calls were made as follows: active = growth percent below 10; inactive = the rest.
Lab note: assign the record to one of 1 (yes) = active, 0 (no) = inactive

Completed entries (count: 5):
Q) # lookup: test call for COc1ccc(-c2cc(C(=O)Nc3nc4cc(C)c(C)cc4s3)nc3cc(-c4ccccc4)nn23)cc1OC
A) 0 (no)

Q) # lookup: test call for O=C1OCCCCCCCCCC#Cc2ccccc21
A) 0 (no)

Q) # lookup: test call for CN(CCOc1ccc(CC2SC(=O)NC2=O)cc1)c1ccccn1 (stereo not given)
A) 0 (no)

Q) # lookup: test call for O=C(Nc1nc2ccccc2s1)c1cc(-c2ccc(F)cc2)n2nc(-c3ccccc3)cc2n1
A) 0 (no)

Q) # lookup: test call for [O-]/[N+](=C\C=C\c1ccccc1)c1ccccc1
A) 0 (no)

---
Q) # lookup: test call for CCCc1cc(=O)n2c(C(=O)Nc3ccccc3OC)c(C(=O)Nc3ccc(F)cc3)sc2n1
A) 0 (no)

Q) # lookup: test call for Cc1cc(O)c2c(c1)C[C@H]1[C@@H]3CC[C@H]4CC(=O)CC[C@]4(C)[C@H]3CC(=O)[C@]21C
A) 0 (no)

Q) # lookup: test call for COc1cc(/C=C2\CCC/C(=C\c3ccc(OCC4CO4)c(OC)c3)C2=O)ccc1OCC1CO1 (stereo not given)
A) 1 (yes)

Q) # lookup: test call for COc1cc(C2NC(c3ccc(Cl)cc3)C(C)/C(=N/NC(N)=S)C2C)cc(OC)c1OC (stereo not given)
A) 0 (no)

Q) # lookup: test call for CCC(C)CC(C)C(=O)c1c(O)ccn(OC)c1=O (stereo not given)
A) 0 (no)

====

# System: RPMI-8226 leukemia
# experiment: NCI-60 one-dose screen, 48 h (100 = growth as untreated, 0 = no growth, -100 = all killed)
# stated.conditions: 10 µM unless noted
About 83,000 compounds went through this panel and 20% of them were active in at least one assay; those are over-represented in the sample as a whole.
observation.type: growth (%)
Field format: number, assumed %, no unit text.

In the examples that follow, each entry is paired with its recorded growth.
Q) Can you share its growth? I mean this compound: CSc1nc2c(c(=O)n1C)C(c1ccccc1)C1=C(N2)/C(=C/c2ccccc2)CCC1 (stereo unspecified)
A) 39.5

Q) Can you share its growth? I mean this compound: NCCCc1nnc(CCC(=O)c2nc3ccccc3[nH]2)o1
A) 101

Q) Can you share its growth? I mean this compound: Nc1ccc(S(=O)(=O)Nc2ncccn2)cc1
A) 112

Q) Can you share its growth? I mean this compound: COc1ccc(-c2nnc(COc3ccc(NC(=O)Nc4cc(C(F)(F)F)cc(C(F)(F)F)c4)cc3F)o2)cc1
A) -25.8

Q) Can you share its growth? I mean this compound: COc1ccc2c(c1)C(=O)c1c-2c(OCCCN(C)C)nc2cc(Br)ccc12
A) 73.4

---
Q) Can you share its growth? I mean this compound: COc1ccc2[nH]cc(/C=C3/C(=O)Nc4ccc(F)cc43)c2c1
A) 62.4

Q) Can you share its growth? I mean this compound: Fc1ccc([C@@H]2CCNC[C@H]2COc2ccc3c(c2)OCO3)cc1
A) 32.9

Q) Can you share its growth? I mean this compound: ClC1=C(Cl)C(Cl)=C(Cl)C1=Cc1ccc(Cl)cc1
A) -43.2

Q) Can you share its growth? I mean this compound: COc1ccc(/C(=C2\O[C@@H]([C@H](O)CO)[C@H]3OC(C)(C)O[C@@H]23)c2cc(OC)c(OC)c(OC)c2)cc1O
A) 73.3

Q) Can you share its growth? I mean this compound: CC12CCCCC1C(C(N)=O)C(=O)O2 (stereo unspecified)
A) 106

Q) Can you share its growth? I mean this compound: Nc1c2ccccc2nc2ccccc12 (tested in a mixture with another compound)
A) 7.88

Q) Can you share its growth? I mean this compound: O=C(Nc1cccc(-n2cc(-c3ccncc3)c(-c3ccc(O)c(Cl)c3)n2)c1)Nc1ccc(Cl)c(C(F)(F)F)c1
A) -27.4

Q) Can you share its growth? I mean this compound: COc1cc2c(cc1OCCCOc1ccc(-c3cc4ccccc4c4ccccc34)cc1)N=C[C@@H]1CCCN1C2=O
A) 0.228

Q) Can you share its growth? I mean this compound: COc1cccc2c1O/C(=C\c1c([N+](=O)[O-])ncn1C)C2=O
A) -17

Q) Can you share its growth? I mean this compound: O=c1c(O)cccn1CCCNCCCN(CCCn1cccc(O)c1=O)CCCn1cccc(O)c1=O
A) 131

Q) Can you share its growth? I mean this compound: O=C(O)c1ccccc1C(=O)OC1CCCC2CCCC21 (stereo unspecified)
A) 111

Q) Can you share its growth? I mean this compound: Nc1nc(Cl)c2[nH]cnc2n1
A) 107

Q) Can you share its growth? I mean this compound: Cc1cc(CC(=O)O)n(C)c1C(=O)c1ccc(Cl)cc1
A) 103

Q) Can you share its growth? I mean this compound: O=C(Nc1ccccc1Cl)c1cnc2ccc(C3CCNCC3)cn12
A) 108

Q) Can you share its growth? I mean this compound: NC(=O)c1ccccc1NC(=O)c1ccccc1Cl
A) 85

Q) Can you share its growth? I mean this compound: COc1ccc2c(c1)nc(N)c1c3cc(OC)c(OC)cc3cn21
A) 42.8
